target: human GCG receptor (human, UniProt P47871 26-477); assay: cell-based or functional assay
Sequence (P47871 26-477): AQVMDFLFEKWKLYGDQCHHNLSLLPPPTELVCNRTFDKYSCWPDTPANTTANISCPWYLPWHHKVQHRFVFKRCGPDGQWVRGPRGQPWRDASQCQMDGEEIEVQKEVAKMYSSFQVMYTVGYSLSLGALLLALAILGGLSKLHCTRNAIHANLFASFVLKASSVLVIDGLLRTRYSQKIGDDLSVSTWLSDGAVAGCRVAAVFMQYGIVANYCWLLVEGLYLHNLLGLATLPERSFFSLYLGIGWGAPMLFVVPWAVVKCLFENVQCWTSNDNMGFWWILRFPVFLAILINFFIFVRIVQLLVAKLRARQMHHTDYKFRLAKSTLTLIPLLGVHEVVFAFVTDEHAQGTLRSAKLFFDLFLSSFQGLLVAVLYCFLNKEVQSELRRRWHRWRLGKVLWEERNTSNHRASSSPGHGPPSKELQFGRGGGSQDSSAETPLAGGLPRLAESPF
Bridges are numbered along the chain shown (N, C = ends). Where no end group is shown, it is not given here. [ ]: non-standard residue; d: D form. The star is where a group is joined. Acetyl(2-(4-imidazolyl)) = O=C(Cc1c[nH]cn1)*; Aib = CC(C)(N)C(=O)O
Measured parameter: In vitro activity (%) vs. Glucagon, cAMP EC50

Here are 8 binders together with their reported answers.
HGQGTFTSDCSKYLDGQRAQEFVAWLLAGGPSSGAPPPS [triple agonist of SEQ ID NO: 47]; < 0.1%
Y[Aib]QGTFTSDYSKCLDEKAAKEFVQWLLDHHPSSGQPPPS (bridge 16-20; ends not checked) [triple agonist of SEQ ID NO: 68]; 8.8%
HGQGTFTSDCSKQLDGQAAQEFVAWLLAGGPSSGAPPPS [triple agonist of SEQ ID NO: 44]; < 0.1%
H[Aib]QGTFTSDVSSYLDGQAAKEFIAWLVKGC [triple agonist of SEQ ID NO: 1]; < 0.1%
{Acetyl(2-(4-imidazolyl))}-[Aib]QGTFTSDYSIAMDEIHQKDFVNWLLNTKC (bridge 15-19) [triple agonist of SEQ ID NO: 94]; < 0.1%
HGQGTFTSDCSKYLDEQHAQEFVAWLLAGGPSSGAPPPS [triple agonist of SEQ ID NO: 46]; < 0.1%
Y[Aib]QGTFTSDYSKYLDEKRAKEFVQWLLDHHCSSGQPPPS (bridge 16-20) [triple agonist of SEQ ID NO: 43]; 88.4%
[Acetyl(2-(4-imidazolyl))][Aib]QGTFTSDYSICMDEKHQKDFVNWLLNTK (bridge 16-20; ends not checked) [triple agonist of SEQ ID NO: 59]; < 0.1%

List reported In vitro activity (%) vs. Glucagon, cAMP EC50 for each of these binders:
1. H[Aib]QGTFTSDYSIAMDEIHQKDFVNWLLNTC (bridge 16-20; ends not checked) [triple agonist of SEQ ID NO: 57]
2. [Acetyl(2-(4-imidazolyl))]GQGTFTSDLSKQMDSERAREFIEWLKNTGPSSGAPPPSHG [triple agonist of SEQ ID NO: 18]
3. H[Aib]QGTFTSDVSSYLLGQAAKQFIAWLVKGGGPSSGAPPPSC [triple agonist of SEQ ID NO: 3]
4. H[Aib]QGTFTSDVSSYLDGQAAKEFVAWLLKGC (ends and bridges not checked) [triple agonist of SEQ ID NO: 6]
5. H[Aib]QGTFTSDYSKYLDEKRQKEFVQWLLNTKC (bridge 16-20; ends not checked) [triple agonist of SEQ ID NO: 58]
6. {Acetyl(2-(4-imidazolyl))}-[Aib]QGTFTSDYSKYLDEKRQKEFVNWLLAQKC (bridge 15-19) [triple agonist of SEQ ID NO: 93]

< 0.1%
< 0.1%
< 0.1%
< 0.1%
2.6%
0.3%
